Numbers sourced from patent US20260125457A1.

Molecular target: T1, HIS-CALRdel52 (produced in E. coli)
T1 construct: also called recombinant CALRdel52 protein; CALRdel53 target protein
T1 chain: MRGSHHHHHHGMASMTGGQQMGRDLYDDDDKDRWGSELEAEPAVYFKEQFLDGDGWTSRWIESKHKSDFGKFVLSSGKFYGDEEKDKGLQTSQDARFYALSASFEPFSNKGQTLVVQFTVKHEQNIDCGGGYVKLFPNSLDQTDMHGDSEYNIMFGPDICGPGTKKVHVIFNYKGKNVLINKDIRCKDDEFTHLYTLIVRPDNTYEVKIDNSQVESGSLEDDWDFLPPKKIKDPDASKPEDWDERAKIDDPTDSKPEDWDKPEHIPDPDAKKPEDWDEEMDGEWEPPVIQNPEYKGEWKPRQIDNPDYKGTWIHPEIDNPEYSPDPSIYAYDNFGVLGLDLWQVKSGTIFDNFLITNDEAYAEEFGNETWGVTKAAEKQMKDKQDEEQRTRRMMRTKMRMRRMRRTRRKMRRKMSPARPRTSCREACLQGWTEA
Test: QC monoclonal phage ELISA
measurement label: phage ELISA signal (Coating: CALR)

Example results:
{"columns": ["binder", "measurement label", "result"],
 "data": [
  ["Clone 10 (Fab, V domains shown, Rabbit/human chimeric Fab (human CH1, CK) on phage; also soluble Fab-AP) VH: QSVEESGGRLVTPGTPLTLTCTVSGIDLSNNAISWVRQAPGKGLEYIGVIGNTGDTYYASWAKGRFTISKTSSTTVDLKMTSLTTEDTATYFCVRGPPSYSNSVKNIWGPGTLVTISS VL: DPMLTQTPSSVSAAVGGTVTIGCQSSQSVYDKNWLSWYQQKPGQPPSRLIYDASKLESGVPSRFSGSGSGTQFTLTISGVQCDDVATYYCAGGFTGNVYAFGGGTEVVVK", "phage ELISA signal (Coating: CALR)", 2.18],
  ["Clone 1 (Fab, V domains shown, Rabbit/human chimeric Fab (human CH1, CK) on phage; also soluble Fab-AP) VH: QEQLKESGGRLVTPGTPLTLTCAVSGFSLDIYGMSWVRQAPGKGLEWIGIIYIEGITYYANWAKGRFTISKTSSTTLELKMTSLTTEDTAMYFCVAGVGRIWGPGTLVTVSS VL: YVMMTQTPSSVSAAVGGTVTINCQASQSLYNNNNLAWFQQKPGQPPKRLIYPASTLASGVSSRFKGSGSGTQFTLTISDVQRDDAATYFCLGEFSCSSADCYAFGGGTEVVVK", "phage ELISA signal (Coating: CALR)", 2.92],
  ["Clone 2 (Fab, V domains shown, Rabbit/human chimeric Fab (human CH1, CK) on phage; also soluble Fab-AP) VH: QSVEESGGRLVTPGTPLTLTCTVSGIDLSNNAISWVRQAPGKGLEYIGVIGNTGTTYYASWAKGRFTISKTSSTTVDLKMTSLTASDTATYFCVRGPPSYSNSVKNIWGPGTLVTVSS VL: DPMLTQTPSSVSAAVGGTVTIGCQSSQSVYDKNWLSWYQQKPGQPPSRLIYDASKLESGVPSRFSGSGSGTQFTLTIGGVQCDDAATYYCAGGFTGNVYAFGGGTKLEIK", "phage ELISA signal (Coating: CALR)", 2.87],
  ["Clone 4 (Fab, V domains shown, Rabbit/human chimeric Fab (human CH1, CK) on phage; also soluble Fab-AP) VH: QEQLEESGGRLVTPGTPLTLTCKVSGIDLSNNAISWVRQAPGKGLEYIGVIGNTGDTYYASWAKGRFTISKTSSTTVDLKMTSLTTEDTATYFCVRGPPSYSNSVKNIWGPGTLVTISS VL: DPMLTQTPSSVSAAVGGTVTINCQSSQSVYNNNWLSWLQQKPGQPPNRLIYDASKLESGVPSRFSGSGSGTQFTLTISGVQRDDAATYYCAGGFTGNVYTFGGGTEVVVK", "phage ELISA signal (Coating: CALR)", 2.54]
]}

Query binder follows.
Consider the binder shown here: Clone 17 (Fab, V domains shown, Rabbit/human chimeric Fab (human CH1, CK) on phage; also soluble Fab-AP) VH: QEQLEESGGRLVTPGTPLTLTCTVSGIDLSNNAMSWVRQAPGKGLEYIGVIGNTGTTYYANWAKGRFTISKTSSATVDLKMTSLTTDDTATYFCVRGPPSYSNSVKNIWGPGTLVTVSS VL: DVMLTQTPSSVSAAVGGTVTINCQSSQSVYDKNWLSWLQQKPGQPPSRLIYDASKLESGVPSRFSGSGSGTQFTLTISGVQCDDAATYYCAGGFTGNVYTFGGGTKVVVK What is its recorded phage ELISA signal (Coating: CALR)? 2.23
